# measurement notes: Plasma concentration in human at 300 mg, po after 5 hrs
# Format: ADME, organism-based
reported property: concentration at 5 h

Would you kindly share the measured concentration at 5 h for Cc1ccc([C@H](C)C(=O)O)cc2c(C)ccc1-2 ? 2400 ng/mL

###

# measurement notes: Plasma concentration in human at 300 mg, po after 25 hrs
# Format: ADME, organism-based
reported property: concentration at 25 h (µg/mL)
One number for each entry, in µg/mL.

Would you kindly share the measured concentration at 25 h for Cc1ccc([C@H](C)C(=O)O)cc2c(C)ccc1-2 ? 2.9

###

# measurement notes: Cmax in human at 500 mg, po
# Assay type: ADME, organism-based
# Set-up: dose 500 mg, route oral
# condition details: in vivo
reported property: Cmax (ng/mL)
Numbers only, in ng/mL.

Would you kindly share the measured Cmax for Cc1ccc([C@H](C)C(=O)O)cc2c(C)ccc1-2 [CHAMAZULENE CARBOXYLIC ACID] ? 900

###

I'd appreciate it if you could supply pKa values for the items below.
# measurement notes: Dissociation constant, pKa of the compound
# Type: physicochemical
Answers are plain numbers.

{"compound": "Cc1ccc([C@H](C)C(=O)O)cc2c(C)ccc1-2 [CHAMAZULENE CARBOXYLIC ACID]", "pKa": 4.14}

Kindly consider the entry below.
Would you kindly share the measured pKa for CC(C(=O)O)c1ccc(-c2ccccc2)c(F)c1 (configuration not stated) [FLURBIPROFEN] ? 4.6

###

# measurement notes: Tmax in human at 500 mg, po
# Type: ADME, organism-based
# condition details: in vivo
reported property: Tmax (h)
Numbers only, in h.

Would you kindly share the measured Tmax for Cc1ccc([C@H](C)C(=O)O)cc2c(C)ccc1-2 ? 1.25

###

# measurement notes: Plasma concentration in human at 300 mg, po after 2.5 hrs
# Format: ADME, organism-based
reported property: concentration at 2.5 h (ng/mL)
Numbers only, in ng/mL.

Would you kindly share the measured concentration at 2.5 h for Cc1ccc([C@H](C)C(=O)O)cc2c(C)ccc1-2 [CHAMAZULENE CARBOXYLIC ACID] ? 1700

###

I'd appreciate it if you could supply logD values for the items below.
# measurement notes: Lipophilicity, log D at pH 7.4
# Type: physicochemical
# condition details: buffer

Worked examples follow.
{"molecule": "CC(C(=O)O)c1ccc(-c2ccccc2)c(F)c1 (stereo not drawn)", "logD": 0.85}
{"molecule": "CC(C)Cc1ccc([C@H](C)C(=O)O)cc1", "logD": 1.07}

Kindly consider the entry below.
Would you kindly share the measured logD for Cc1ccc([C@H](C)C(=O)O)cc2c(C)ccc1-2 ? 0.79

###

# measurement notes: Elimination constant, beta in human at 500 mg, po
# Assay type: ADME, organism-based
# condition details: in vivo
reported property: k el (s⁻¹)
Give bare numbers, in s⁻¹.

Would you kindly share the measured k el for Cc1ccc([C@H](C)C(=O)O)cc2c(C)ccc1-2 ? 4.72e-05

###

# measurement notes: AUC (0 to infinity) in human at 500 mg, po
# Type: ADME, organism-based
# Parameters: dose 500 mg, time infinity, route oral
# condition details: plasma
reported property: AUC(0-inf) (ng·h/mL)
One number for each entry, in ng·h/mL.

Would you kindly share the measured AUC(0-inf) for Cc1ccc([C@H](C)C(=O)O)cc2c(C)ccc1-2 ? 14700
